# Tested on: CCRF-CEM leukemia
# test name: NCI-60 one-dose screen, 48 h (100 = growth as untreated, 0 = no growth, -100 = all killed)
# test conditions: 10 µM unless noted
Compounds without any hit were thinned out: in the full panel of roughly 83,000, 20% have a hit.
growth vs 70%: less than gives 1 (yes); not less than gives 0 (no).

Observe how each entry below is paired with its result.
stdin: hey, is growth for "O=C(CCN1CCCC1)Nc1ccc2c(NCCCc3ccccc3)c3ccccc3nc2c1" lower than 70% or not?
stdout: 1 (yes)

stdin: hey, is growth for "Cn1cc(-c2nc(-c3c[nH]c4c(Cl)nccc34)cs2)c2cc(Br)ccc21" lower than 70% or not?
stdout: 0 (no)

New cases:
stdin: hey, is growth for "O=C(CSc1nc2ccccc2[nH]1)NCc1ccccc1" lower than 70% or not?
stdout: 0 (no)

---

# Test system: OVCAR-3 ovarian
# test name: NCI-60 one-dose screen, 48 h (100 = growth as untreated, 0 = no growth, -100 = all killed)
# test conditions: 10 µM unless noted
This is part of a sample that, as a whole, favours compounds with a hit. Of some 83,000 tested, about 20% had one in any assay.
property name: growth (%)
Express the result in % but write the number alone.

stdin: Provide growth, tested on OVCAR-3 ovarian, for "N#Cc1cc(-c2nc3ccccc3s2)c(=O)n(NS(=O)(=O)c2ccccc2)c1N" .
stdout: 114

stdin: Provide growth, tested on OVCAR-3 ovarian, for "CC1(C)NCCC[C@]2(C)[C@H]3CC(=O)[C@H]4[C@@H]5C[C@](C)(CO)CC[C@]5(C)CC[C@@]4(C)[C@]3(C)CC[C@@H]12" .
stdout: 89.8

stdin: Provide growth, tested on OVCAR-3 ovarian, for "COc1cc2nc(-c3ccc(C(F)(F)F)cc3)cc(OCCCN3CCCC3)c2cc1OC" .
stdout: 64.8

stdin: Provide growth, tested on OVCAR-3 ovarian, for "COc1ccc(C(=O)Cn2c(C(=O)c3ccccc3)nc3ccccc32)cc1" .
stdout: 5.28

stdin: Provide growth, tested on OVCAR-3 ovarian, for "O=C1c2ccc3c4c(ccc(c24)C(=O)N1CCCNCc1ccccc1)C(=O)N(CCCNCc1ccccc1)C3=O" .
stdout: -63.4

New cases:
stdin: Provide growth, tested on OVCAR-3 ovarian, for "O=C1c2ccc3c4c(ccc(c24)C(=O)N1CCCNCc1ccccc1F)C(=O)N(CCCNCc1ccccc1F)C3=O" .
stdout: -63

stdin: Provide growth, tested on OVCAR-3 ovarian, for "CCCCCCCCOc1ccc(/C=N/Nc2cc(C)nc3ccc(Br)cc23)cc1" .
stdout: 67.1

stdin: Provide growth, tested on OVCAR-3 ovarian, for "C=C(C)[C@@H]1CC[C@]2(C(=O)N[C@@H](Cc3ccccc3)C(=O)OC)CC[C@]3(C)[C@H](CC[C@@H]4[C@@]5(C)CCC(=O)C(C)(C)[C@@H]5CC[C@]43C)[C@@H]12" .
stdout: 72.7

---

# System: NCI-H460 lung
# test name: NCI-60 one-dose screen, 48 h
# test conditions: 10 µM unless noted
This is part of a sample that, as a whole, favours compounds with a hit. Of some 83,000 tested, about 20% had one in any assay. Calls of active or inactive are those of the source. Rule for the calls: active = growth percent below 10; inactive = the rest.
Outcome field: choose from active, inactive

Observe how each entry below is paired with its result.
stdin: Hi, sorry to bother you, what did the test record for "O=S(=O)(NCCCNc1nccc(-c2c(-c3cccc(F)c3)nc3sccn23)n1)c1cccc2ccccc12" ?
stdout: inactive

stdin: Hi, sorry to bother you, what did the test record for "COc1cc2c(=O)n(CCN(C)C)c3c4cc5c(cc4ccc3c2cc1OC)OCO5" ?
stdout: active

stdin: Hi, sorry to bother you, what did the test record for CC1(C)CC(O)CCCCCCOc2c(CN)cccc2NC(=O)c2nc(cnc2N)-c2ccc(cc2)S1(=O)=O (centres undefined) ?
stdout: active

stdin: Hi, sorry to bother you, what did the test record for "O=C(Cn1c[n+](CC(=O)c2ccc(-c3ccccc3)cc2)c2ccccc21)Nc1cccc2cccnc12" ?
stdout: inactive

stdin: Hi, sorry to bother you, what did the test record for O=C1OC(Cc2ccccc2)C1c1ccccc1 (centres undefined) ?
stdout: inactive

stdin: Hi, sorry to bother you, what did the test record for "COc1cc2nc(-c3ccc(C(F)(F)F)cc3)cc(OCCCN3CCCC3)c2cc1OC" ?
stdout: inactive

stdin: Hi, sorry to bother you, what did the test record for "N#C/C(=C\c1ccc([N+](=O)[O-])s1)c1nc2cc(Br)ccc2s1" ?
stdout: active

stdin: Hi, sorry to bother you, what did the test record for "N#Cc1c(NCc2ccccc2I)sc2c1CCCCC2" ?
stdout: inactive

New cases:
stdin: Hi, sorry to bother you, what did the test record for CC(Oc1ccc(C(=O)O)cc1C(F)(F)F)c1ccc(Oc2ccccc2)cn1 (centres undefined) ?
stdout: inactive

stdin: Hi, sorry to bother you, what did the test record for "Nc1nc(Nc2ccccc2SSc2ccccc2Nc2nc(N)nc(-c3ccc(C(F)(F)F)cc3)n2)nc(-c2ccc(C(F)(F)F)cc2)n1" ?
stdout: inactive

stdin: Hi, sorry to bother you, what did the test record for "Cc1nnc2c(Cc3ccccc3)nc3ccccc3n12" ?
stdout: inactive

stdin: Hi, sorry to bother you, what did the test record for NC(=NCc1ccccc1)C(N=Nc1ccccc1)C(=O)NCc1ccccc1 (centres undefined) ?
stdout: inactive

stdin: Hi, sorry to bother you, what did the test record for "O=C(NCCNc1nccc(-c2c(-c3cccc(F)c3)nc3sccn23)n1)c1ccc(Cl)cc1" ?
stdout: inactive

stdin: Hi, sorry to bother you, what did the test record for "C=C(C)[C@@H]1CC[C@]2(C(=O)N[C@H](CO)Cc3ccccc3)CC[C@]3(C)[C@H](CC[C@@H]4[C@@]5(C)CCCNC(C)(C)[C@@H]5CC[C@]43C)[C@@H]12" ?
stdout: active

stdin: Hi, sorry to bother you, what did the test record for O=C(N/N=C/c1ccc(Oc2ccccc2)cc1)c1cnn2c1NC(c1ccccc1)C2 (centres undefined) ?
stdout: active

---

# System: SK-OV-3 ovarian
# test name: NCI-60 one-dose screen, 48 h (100 = growth as untreated, 0 = no growth, -100 = all killed)
# test conditions: 10 µM unless noted
# Procedure: Growth inhibition of the SK-OV-3 human tumor cell line is measured as a screen for anti-cancer activity. Cells are grown in 96 well plates and exposed to the test compound for 48 hours. Compounds are tested at a single concentration, which is 10^-5 M for most compounds. The reported endpoint is percent growth (GI% or GIPRCNT), where numbers from 0 - 100% represent growth inhibition, and numbers from -100% - 0 represent cell death. For example, a value of 40 represents 60% growth inhibition. […]
About 83,000 compounds went through this panel and 20% of them were active in at least one assay; those are over-represented in the sample as a whole. Active and inactive are the calls of the source. Rule for the calls: active = growth percent below 10; inactive = the rest.
property name: growth

Examples with their reported growth follow.
stdin: Dear colleague, please send me the reported growth for "C#CCNC(=O)[C@]1(C)CC[C@]2(C)CC[C@@H]3C(=CC[C@H]4[C@@]3(C)CC[C@H]3C(C)(C)C(=O)CC[C@]43C)[C@@H]2C1" when you can.
stdout: 92.1% (inactive)

stdin: Dear colleague, please send me the reported growth for "O=S(=O)(NCCCNc1nccc(-c2c(-c3cccc(F)c3)nc3sccn23)n1)c1cccc(F)c1" when you can.
stdout: 66% (inactive)

stdin: Dear colleague, please send me the reported growth for Cn1ccc2c1CC1CN(Cc3ccco3)C(=O)C1C2C(=O)O (centres undefined) when you can.
stdout: 109% (inactive)

stdin: Dear colleague, please send me the reported growth for "O=C(/C=C(/C=C/c1csc2ccccc12)OB(F)F)/C=C/c1csc2ccccc12" when you can.
stdout: 100% (inactive)

Okay, now this compound:
stdin: Dear colleague, please send me the reported growth for "Cn1ccnc1C(=O)/C=C/c1ccc(CC(=O)Nc2ccc(Cl)cc2)cc1" when you can.
stdout: 58.7% (inactive)

---

# Test system: SNB-75 CNS
# test name: NCI-60 one-dose screen, 48 h (100 = growth as untreated, 0 = no growth, -100 = all killed)
# test conditions: 10 µM unless noted
# Procedure: Growth inhibition of the SNB-75 human tumor cell line is measured as a screen for anti-cancer activity. Cells are grown in 96 well plates and exposed to the test compound for 48 hours. Compounds are tested at a single concentration, which is 10^-5 M for most compounds. The reported endpoint is percent growth (GI% or GIPRCNT), where numbers from 0 - 100% represent growth inhibition, and numbers from -100% - 0 represent cell death. For example, a value of 40 represents 60% growth inhibition. […]
This is part of a sample that, as a whole, favours compounds with a hit. Of some 83,000 tested, about 20% had one in any assay.
growth vs 70%: less than gives rule met; not less than gives rule not met.

Observe how each entry below is paired with its result.
stdin: hey, is growth for "O=C(Nc1ccc(-c2ccc3c(c2)NC(=O)/C3=C\c2ccc[nH]2)cc1)NC1CC1" lower than 70% or not?
stdout: rule not met

stdin: hey, is growth for "CN1CCN(c2ccc(NC3=C(Cl)C(=O)c4ncccc4C3=O)cc2C(F)(F)F)CC1" lower than 70% or not?
stdout: rule not met

stdin: hey, is growth for "Nc1n[nH]c2cccc(C#Cc3cccc(C(=O)Nc4cccc(C(F)(F)F)c4)c3)c12" lower than 70% or not?
stdout: rule not met

New cases:
stdin: hey, is growth for "O=C(NCCNc1nccc(-c2c(-c3cccc(F)c3)nc3sccn23)n1)c1ccc(Cl)cc1" lower than 70% or not?
stdout: rule met

stdin: hey, is growth for "O=C1NN(C(=O)c2ccccc2)C(c2ccc(Cl)c(Cl)c2)=C/C1=C\c1ccc([N+](=O)[O-])cc1" lower than 70% or not?
stdout: rule met

stdin: hey, is growth for "O=C(Nc1ccc(NC(=O)c2cc(=O)[nH]c3ccccc23)cc1)Nc1cccc(Cl)c1" lower than 70% or not?
stdout: rule not met

stdin: hey, is growth for "COc1cc(/C=C\c2cc(/C=C\c3ccc(O)c(OC)c3)n(C(=O)COc3ccccc3)n2)ccc1O" lower than 70% or not?
stdout: rule met

stdin: hey, is growth for COc1cc(C2=NN(C(C)=O)C(c3cc(OC)c(OC)c(OC)c3)C2)ccc1O (centres undefined) lower than 70% or not?
stdout: rule met

Source: PubChem BioAssay (NCI)
